# assay_target: Adrenergic receptor alpha-1 (Rattus norvegicus, UniProt P15823+P23944+P43140)
# test: In vitro radioligand binding assay on adrenaline Alpha-1 adrenergic receptor of rat cortex using [3H]- prazosin
# Format: tissue-based
measurement_type: Ki (nM)

Reference set (3 entries):
{"smiles_code": "COc1ccc(CCCCNCCOc2c(F)ccc3c2OCCC3)cc1", "Ki (nM)": 71.5}
{"smiles_code": "COc1ccccc1N1CCN(C[C@@H](C(=O)NC(C)(C)C)c2ccccc2)CC1", "Ki (nM)": 897}
{"smiles_code": "COc1ccc(CCCCNCCOc2cc(C)cc3c2OCCC3)cc1", "Ki (nM)": 35.1}

(A) COc1ccc(CCCCNCCOc2cccc3c2OCCC3)cc1
(B) COc1ccc(CCCCNCCOc2cc(OC)cc3c2OCCC3)cc1
(C) COc1ccc(CCCCNCCOc2cc(O)cc3c2OCCC3)cc1
Rank the 3 compounds: largest Ki first, smallest last. I'd appreciate it if you listed the labels in the requested order.
C, B, A
(C: 98.4 nM, B: 27.9 nM, A: 5.19 nM)

###

# assay_target: Adrenergic receptor alpha-1 (Rattus norvegicus, UniProt P15823+P23944+P43140)
# test: In vitro radioligand binding assay on adrenaline Alpha-1 adrenergic receptor of rat cortex using [3H]- prazosin
# Assay type: tissue-based
measurement_type: Ki (nM)

(A) COc1ccc(CCCCNCCOc2cc(Cl)cc3c2OCCC3)cc1
(B) O=C1C2C(C(=O)N1CCCCN1CCN(c3ncccn3)CC1)[C@H]1CC[C@@H]2C1 (stereo not given in full)
(C) COc1ccc(CCCCNCCOc2cc(F)cc3c2OCCC3)cc1
(D) COc1ccc(CCCCNCCOc2ccc(F)c3c2OCCC3)cc1
Order all 4 entries above by recorded Ki, highest first, lowest last. I'd appreciate it if you listed the labels in the requested order.
B, A, D, C

###

Reported Ki for target or system UniProt:P19327, by entry.
Sequence (P19327 whole entry): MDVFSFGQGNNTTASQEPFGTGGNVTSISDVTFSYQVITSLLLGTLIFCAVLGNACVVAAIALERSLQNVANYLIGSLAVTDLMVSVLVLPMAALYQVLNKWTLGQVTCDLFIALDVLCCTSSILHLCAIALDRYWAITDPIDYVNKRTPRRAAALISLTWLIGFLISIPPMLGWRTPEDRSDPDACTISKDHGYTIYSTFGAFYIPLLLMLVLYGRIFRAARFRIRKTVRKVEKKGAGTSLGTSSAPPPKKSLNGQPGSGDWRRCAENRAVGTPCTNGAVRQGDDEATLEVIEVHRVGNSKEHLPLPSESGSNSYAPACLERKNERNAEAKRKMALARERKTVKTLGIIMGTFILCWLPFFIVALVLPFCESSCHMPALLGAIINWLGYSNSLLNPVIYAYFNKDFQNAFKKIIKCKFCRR
measurement_type: Ki (nM)

Reference set (3 entries):
{"smiles_code": "COc1ccccc1N1CCN(C[C@@H](C(=O)NC(C)(C)C)c2ccccc2)CC1", "measurement_type": "Ki", "display_unit": "nM", "test_value": 27.9}
{"smiles_code": "COc1ccc(CCCCNCCOc2cc(C)cc3c2OCCC3)cc1", "measurement_type": "Ki", "display_unit": "nM", "test_value": 0.779}
{"smiles_code": "CCCN(CCC)[C@H]1CCc2c(F)ccc(O)c2C1", "measurement_type": "Ki", "display_unit": "nM", "test_value": 46}

(1) COc1ccc(CCCCNCCOc2ccc(F)c3c2OCCC3)cc1
(2) COc1ccc(CCCCNCCOc2cc(O)cc3c2OCCC3)cc1
Lab note: check whether 1 or 2 shows the higher recorded Ki. Answer with the label corresponding to your selection.
2

###

# assay_target: D(2) dopamine receptor (Rattus norvegicus, UniProt P61169)
# Sequence (P61169 whole entry): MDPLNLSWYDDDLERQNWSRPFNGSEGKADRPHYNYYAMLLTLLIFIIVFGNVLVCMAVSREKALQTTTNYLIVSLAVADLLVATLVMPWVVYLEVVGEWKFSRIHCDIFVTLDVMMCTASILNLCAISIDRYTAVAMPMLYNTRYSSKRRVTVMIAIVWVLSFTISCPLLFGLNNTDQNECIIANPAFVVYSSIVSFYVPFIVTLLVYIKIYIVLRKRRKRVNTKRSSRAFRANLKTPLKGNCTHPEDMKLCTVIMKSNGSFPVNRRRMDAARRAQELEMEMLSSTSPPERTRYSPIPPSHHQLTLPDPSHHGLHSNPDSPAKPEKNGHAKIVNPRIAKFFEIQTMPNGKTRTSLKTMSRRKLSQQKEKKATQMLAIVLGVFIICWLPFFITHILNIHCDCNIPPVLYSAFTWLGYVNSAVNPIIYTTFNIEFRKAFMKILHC
# test: In vitro radioligand binding assay on Dopamine receptor D2 of rat striatum using [3H]- spiperone
pKi: −log10 of the molar value.
measurement_type: pKi

Reference set (5 entries):
{"smiles_code": "COc1ccc(CCCCNCCOc2cc(O)cc3c2OCCC3)cc1", "pKi": 8.75}
{"smiles_code": "COc1ccc(CCCCNCCOc2cc(OC)cc3c2OCCC3)cc1", "pKi": 8.76}
{"smiles_code": "COc1ccc(CCCCNCCOc2ccc(F)c3c2OCCC3)cc1", "pKi": 8.45}
{"smiles_code": "COc1ccc(CCCCNCCOc2c(F)ccc3c2OCCC3)cc1", "pKi": 7.67}
{"smiles_code": "COc1ccc(CCCCNCCOc2cccc3c2OCCC3)cc1", "pKi": 9.24}

(a) COc1ccc(CCCCNCCOc2cc(Cl)cc3c2OCCC3)cc1
(b) COc1ccccc1N1CCN(C[C@@H](C(=O)NC(C)(C)C)c2ccccc2)CC1
(c) COc1ccc(CCCCNCCOc2cc(C)cc3c2OCCC3)cc1
Task for the reader: rank each entry by its pKi, from the minimum upward. I'd appreciate it if you listed the labels in the requested order.
b, c, a
(b: 6.75, c: 8.75, a: 9.31)
